experiment: qHTS assay for small molecules that induce genotoxicity in human embryonic kidney cells expressing luciferase-tagged ATAD5 - cell viability (AID 651634); conditions: HEK293T ATAD5-luc cells viability, CellTiter-Fluor, 15.5 h; series mostly up to 83.3 µM; also: nearly all actives have a fitted effect of over 25% in size
Records with an inconclusive call do not appear. Activity calls are given as the source filed them. Calls follow the shape of the full dose curve.
Thanks in advance; please answer with one of these: class 1 for active, class 0 for inactive

Consider the following illustrative entries.
1) CN(C)C(=O)C1(N2CCCCC2)CCN(CC[C@@]2(c3ccc(Cl)c(Cl)c3)CN(C(=O)c3ccccc3)CCO2)CC1 = class 1
2) CCCN(CCC)C(=O)C(CCC(=O)OCCCN1CCN(CCOC(=O)Cc2c(C)n(C(=O)c3ccc(Cl)cc3)c3ccc(OC)cc23)CC1)NC(=O)c1ccccc1 (stereo not drawn) = class 1

--- query ---
[ask] Could you check what this test reported for "O=C(Nc1ccc(Oc2ccc(Cl)cc2)c(Cl)c1)c1cc(I)cc(I)c1O" ?
[reply] class 0

###

target: Thyrotropin receptor (Homo sapiens) (UniProt P16473); test: qHTS assay to identify small molecule agonists of the thyroid stimulating hormone receptor (TSHR) signaling pathway (AID 1224843); conditions: TSHR-HEK293 cells, cAMP HTRF, agonist mode, 30 min; series mostly up to 92.4 µM; also: % is scaled to controls: 0 for no effect and ±100 for the full control effect; nearly all actives have a fitted effect of over 45% in size
Sequence (P16473 whole entry, looked up): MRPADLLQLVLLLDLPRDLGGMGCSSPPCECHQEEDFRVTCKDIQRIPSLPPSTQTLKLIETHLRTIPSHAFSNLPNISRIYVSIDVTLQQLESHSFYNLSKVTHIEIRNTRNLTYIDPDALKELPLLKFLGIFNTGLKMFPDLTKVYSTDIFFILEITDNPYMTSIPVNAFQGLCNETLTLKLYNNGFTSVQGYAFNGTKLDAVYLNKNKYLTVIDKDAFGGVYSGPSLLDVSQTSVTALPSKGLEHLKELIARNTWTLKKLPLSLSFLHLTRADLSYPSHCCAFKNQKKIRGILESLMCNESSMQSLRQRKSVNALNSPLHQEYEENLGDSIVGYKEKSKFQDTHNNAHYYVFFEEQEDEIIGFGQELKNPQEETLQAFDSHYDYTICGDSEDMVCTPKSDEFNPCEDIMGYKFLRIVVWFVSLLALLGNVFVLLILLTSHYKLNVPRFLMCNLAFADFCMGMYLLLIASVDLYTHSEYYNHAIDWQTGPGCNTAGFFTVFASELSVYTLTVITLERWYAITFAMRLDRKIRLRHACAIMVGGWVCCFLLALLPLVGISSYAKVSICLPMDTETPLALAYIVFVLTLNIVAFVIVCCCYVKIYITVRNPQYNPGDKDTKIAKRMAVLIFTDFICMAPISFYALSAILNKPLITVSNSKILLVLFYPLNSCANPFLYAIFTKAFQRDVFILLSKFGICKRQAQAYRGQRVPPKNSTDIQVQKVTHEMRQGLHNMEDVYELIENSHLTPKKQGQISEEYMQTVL
Inconclusive results are not listed. Activity calls are given as the source filed them. Calls follow the shape of the full dose curve.
Log the outcome using a class from active, inactive

1) Cc1onc(-c2ccccc2Cl)c1C(=O)N[C@@H]1C(=O)N2[C@@H]1SC(C)(C)[C@@H]2C(=O)O = inactive
2) CCCCCCCCOC(=O)c1ccc(O)cc1 = inactive
3) CO[Si](CCCNc1ccccc1)(OC)OC = inactive

[ask] Status in this test for "O=C(Nc1cccc(C(F)(F)F)c1)c1cc(Br)cc(Br)c1O" ?
[reply] inactive

[ask] Hi, sorry to bother you, what did the test record for "COC(=O)c1cc(Cl)ccc1OC" ?
[reply] inactive

[ask] I'd appreciate the recorded outcome for "O=[N+]([O-])c1ccccc1Nc1ccccc1" from this test.
[reply] inactive

[ask] GET /call?item= "CC1(C)CCC(C)(C)c2cc(C(=O)Nc3ccc(C(=O)O)cc3)ccc21" returns the recorded outcome of this test.
[reply] inactive

[ask] Recorded test outcome, item "C/C(=C(/OCCOc1ccc(Cl)cc1)c1ccc(Cl)cc1Cl)n1ccnc1"
[reply] inactive

###

biological target: Androgen receptor (Homo sapiens); assay: qHTS assay to identify small molecule antagonists of the androgen receptor (AR) signaling pathway (AID 743035); conditions: HEK293 AR-UAS-bla, R1881-stimulated, beta-lactamase FRET, 16 h; series mostly up to 58.5 µM
Results filed as inconclusive are left out. Active and inactive are the calls of the source. The call rests on the fitted dose curve; in most records, active means well fitted inhibition curve with a large enough effect in the signal ratio in the repeat runs (not every such curve was filed as active); inconclusive means weak or mixed curves, or effect the other way; inactive means no such curve, though single readings can be large or run the other way; the % refers to the signal ratio.
Outcome (select one): Yes for active, No for inactive

Past entries and their recorded results:
1. ON=C1CCCC1 = No
2. Fc1ccc([C@@H]2CCNC[C@H]2COc2ccc3c(c2)OCO3)cc1 = Yes
3. CCCCCCCCCCC=O = No
4. CSc1ccc(/C=C2/C(C)=C(CC(=O)O)c3cc(F)ccc32)cc1 = No
5. CCC(C)Nc1ccc(NC(C)CC)cc1 (stereo unspecified) = Yes

We next turn to a different compound, shown below.
[ask] Answer briefly: the call reported for "C=CC(=O)OCC(CO)(COCC(COC(=O)C=C)(COC(=O)C=C)COC(=O)C=C)COC(=O)C=C" in this assay.
[reply] Yes

###

assay: qHTS RealTime-Glo MT Cell Viability Assay in HepG2 cells - 16 hour (AID 1224885); conditions: RealTime-Glo luminescence; series mostly up to 76.8 µM; also: nearly all actives have a fitted effect of over 50% in size; also: potency is read from the fitted curve at half-maximal effect
Records with an inconclusive call do not appear. Active and inactive are the calls of the source. The call rests on the fitted dose curve; in most records, active means well fitted cell-killing curve with a large enough effect in the repeat runs; inconclusive means weak or mixed curves; inactive means flat fitted curve, though single readings scatter.
measured-attribute: Potency

Solved cases below.
1) CCOC(=O)O[C@H](C)OC(=O)c1ccc2c(c1)cc(C(=O)NC1CCN(C(C)C)CC1)n2Cc1cc(-c2ccc(Cl)s2)on1 = 12.9 µM (active)
2) Cc1[nH]nc2c1N=C(c1ccccc1Cl)c1cc([N+](=O)[O-])ccc1N2 = inactive
3) CCC(Cl)C(Cl)C(Cl)CC(Cl)C(Cl)C(C)Cl (configuration not stated) = inactive
4) CCC(C)Nc1ccc(NC(C)CC)cc1 (configuration not stated) = 17.7 µM (active)
5) CCCCCCCCCCCCCCCS(=O)(=O)Oc1ccccc1 = inactive

[ask] Any idea what Potency was measured for "CCCCCCCC/C=C/CCCCCCCC1=NCCN1CCO" ?
[reply] 24.5 µM (active)

[ask] Which Potency reading was recorded for the compound CCCCCCCCS(=O)C(C)Cc1ccc2c(c1)OCO2 (configuration not stated) ?
[reply] inactive

[ask] Requested field: Potency. Item: "CC(C)c1ccc2c(c1)CC[C@H]1[C@](C)(CN)CCC[C@]21C"
[reply] 17.4 µM (active)

[ask] I am curious: what Potency value has been reported for "CCCCN(CCCC)C(=O)N(CCCC)CCCC" ?
[reply] inactive

[ask] What value of measured Potency is listed for "CC1(C)CCC(C)(C)c2cc(C(=O)Nc3ccc(C(=O)O)cc3)ccc21" ?
[reply] inactive

[ask] Please look up its Potency: CC(C)(C)C1CCC(CC2=C(O)c3ccccc3C(=O)C2=O)CC1 (configuration not stated)
[reply] inactive

[ask] Recorded Potency for "OCCN1CCN(CC/C=C2/c3ccccc3Sc3ccc(C(F)(F)F)cc32)CC1" , please?
[reply] 23.9 µM (active)

###

Experiment: qHTS assay to identify small molecule HDAC inhibitors (AID 1259364);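 also: wild-type HCT-116 cells with endogenous class I/II HDAC activity; nearly all actives have a fitted effect of over 45% in size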
Details: HCT-116 HDAC-Glo I/II luminescence, 2 h; series mostly up to 92.4 µM
Excerpt: U.S. Tox21 Program National Center for Advancing Translational Sciences [NCATS] NIH Chemical Genomics Center [NCGC] U.S. Environmental Protection Agency [EPA] National Institutes of Environmental Health Sciences [NIEHS] National Toxicology Program [NTP] U.S. Food and Drug Administration [FDA] Tox21 Assay Overview: Histone deacetylases (HDACs) are a group of epigenetic enzymes that regulate gene expression by histone deacetylation. […]
Results filed as inconclusive are left out. Active and inactive are the calls of the source. The call rests on the fitted dose curve; in most records, active means well fitted inhibition curve with a large enough effect in the repeat runs; inconclusive means weak or mixed curves; inactive means flat fitted curve, though single readings scatter.
Give your call using only these classes: active, inactive

1) CC(C)=CCOc1ccc(/C=C/C(=O)c2ccc(OCC=C(C)C)cc2OCC(=O)O)cc1 = inactive

[ask] Tell me the assay call for CSc1ccc2c(c1)C(N1CCN(C)CC1)Cc1ccccc1S2 (configuration not stated) please.
[reply] inactive

[ask] Recorded test outcome, item CC1=NC(C)OC1C (configuration not stated)
[reply] inactive

[ask] Fill in: this test's call for "CCCCCCCCOc1ccccc1C(=O)Nc1ccc(C(=O)OCC[N+](C)(CC)CC)cc1" is ___
[reply] inactive

[ask] For "O=C(Nc1cccc(C(F)(F)F)c1)c1cc(Br)cc(Br)c1O" , what call appears in the results of this test?
[reply] active

[ask] What outcome does the record of this test show for "CN(C)C(=O)C1(N2CCCCC2)CCN(CC[C@@]2(c3ccc(Cl)c(Cl)c3)CN(C(=O)c3ccccc3)CCO2)CC1" ?
[reply] inactive

###

assay: qHTS RealTime-Glo MT Cell Viability Assay in HepG2 cells - 40 hour (AID 1224870); details: RealTime-Glo luminescence; series mostly up to 76.8 µM; also: nearly all actives have a fitted effect of over 50% in size
Records with an inconclusive call do not appear. Active and inactive are the calls of the source. The call rests on the fitted dose curve; in most records, active means well fitted cell-killing curve with a large enough effect in the repeat runs; inconclusive means weak or mixed curves, or effect the other way; inactive means flat fitted curve, though single readings scatter.
Give one outcome, nothing more. List: 1 (yes) (active), 0 (no) (inactive)

1) CN(C)[C@@H]1C(=O)C(C(N)=O)=C(O)[C@@]2(O)C(=O)C3=C(O)c4c(O)ccc(Cl)c4[C@@H](O)[C@H]3C[C@@H]12 = 0 (no)

[ask] Could you kindly confirm the outcome this assay logged for "N=C1N=C(N)c2cc3ccccc3cc21" ?
[reply] 1 (yes)

[ask] Identify the outcome logged in this assay for the compound shown: "CCCCCCCCCCCC(=O)NCCCN(C)C"
[reply] 1 (yes)

[ask] Assay result, entry "CC1(C)CCC(C)(C)c2cc(C(=O)Nc3ccc(C(=O)O)cc3)ccc21" — outcome?
[reply] 0 (no)

[ask] # outcome recorded in this test, key = "S=c1[nH]c2ccccc2s1"
[reply] 0 (no)

###

assay: qHTS assay to identify small molecule agonists of the farnesoid-X-receptor (FXR) signaling pathway - cell viability counter screen (AID 743218); conditions: FXR-bla HEK293T viability, CellTiter-Glo luminescence, 16 h; series mostly up to 62.6 µM; also: nearly all actives have a fitted effect of over 45% in size
Records with an inconclusive call do not appear. The source made the active and inactive calls. Calls come from the whole dose curve; as a rule, active = well fitted cell-killing curve with a large enough effect in the repeat runs; inconclusive = weak or mixed curves, or effect the other way; inactive = no such curve, though single readings can be large or run the other way.
Respond using exactly one of the listed classes: YES for active, NO for inactive

Illustrative cases are given below, each with its answer.
1. Nc1ccc(N)c2ccccc12 = YES
2. CCCCCCCCOC(=O)c1ccc(O)cc1 = NO
3. O=C(Nc1cccc(C(F)(F)F)c1)c1cc(Br)cc(Br)c1O = YES
4. ON=C1CCCC1 = NO
5. C1CCCC1 = NO

[ask] Identify the outcome logged in this assay for the compound shown: "O=c1[nH]cnc2nc[nH]c12"
[reply] NO

[ask] Assay outcome for "Clc1ccc2nsnc2c1NC1=NCCN1" : what was it?
[reply] NO

[ask] Short answer needed: outcome of this test for "CC(=O)S[C@@H]1CC2=CC(=O)CC[C@]2(C)[C@H]2CC[C@@]3(C)[C@@H](CC[C@@]34CCC(=O)O4)[C@H]12" ?
[reply] NO

[ask] Hi team, can someone confirm the assay call for "CCCCCCCCCCCCc1ccc(O)cc1" ?
[reply] YES

[ask] GET /call?item= CCCC(C)c1ccccc1O (stereo not given) returns the recorded outcome of this test.
[reply] NO

[ask] Field: outcome | Entry: "CCCCCCCCCCCCCCCS(=O)(=O)Oc1ccccc1"
[reply] NO

[ask] Assay result, entry "NC(=O)C1(N2CCCCC2)CCN(CCCN2c3ccccc3CCc3ccc(Cl)cc32)CC1" — outcome?
[reply] YES

[ask] Tell me the recorded outcome of this test for COC(=O)C1=C(C)NC(C)=C(C(=O)OCC(C)C)C1c1ccccc1[N+](=O)[O-] (stereo not given) .
[reply] NO

[ask] Record lookup: outcome of this test for "O=Cc1cc(O)ccc1Br" ?
[reply] NO

[ask] Outcome logged for CC1=NC(C)OC1C (stereo not given) in this assay:
[reply] NO

// data source = PubChem BioAssay (Tox21)
